molecular target: UniProt P21918
Sequence (P21918 whole entry): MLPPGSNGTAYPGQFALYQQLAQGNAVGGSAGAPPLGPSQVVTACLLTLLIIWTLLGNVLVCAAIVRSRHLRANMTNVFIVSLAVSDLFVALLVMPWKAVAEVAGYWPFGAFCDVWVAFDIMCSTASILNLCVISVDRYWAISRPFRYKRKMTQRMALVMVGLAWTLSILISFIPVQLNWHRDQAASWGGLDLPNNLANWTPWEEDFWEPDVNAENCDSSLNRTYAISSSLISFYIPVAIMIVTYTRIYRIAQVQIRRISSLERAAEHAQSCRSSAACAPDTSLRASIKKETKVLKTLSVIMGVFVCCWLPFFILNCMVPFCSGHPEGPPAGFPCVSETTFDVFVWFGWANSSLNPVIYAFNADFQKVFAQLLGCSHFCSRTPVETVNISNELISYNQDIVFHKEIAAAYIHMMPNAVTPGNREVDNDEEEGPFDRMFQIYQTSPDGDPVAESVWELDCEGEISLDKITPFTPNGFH
Parameter Measured: Ki (nM)
Form entry: value (nM) — number only.

In: Quick one: Ki for OC(c1ccccc1)C1CCN(CCc2ccccc2)CC1 (stereo unspecified) ?
Out: 2870

---

target: D(1A) dopamine receptor (Homo sapiens, UniProt P21728)
Sequence (P21728 whole entry): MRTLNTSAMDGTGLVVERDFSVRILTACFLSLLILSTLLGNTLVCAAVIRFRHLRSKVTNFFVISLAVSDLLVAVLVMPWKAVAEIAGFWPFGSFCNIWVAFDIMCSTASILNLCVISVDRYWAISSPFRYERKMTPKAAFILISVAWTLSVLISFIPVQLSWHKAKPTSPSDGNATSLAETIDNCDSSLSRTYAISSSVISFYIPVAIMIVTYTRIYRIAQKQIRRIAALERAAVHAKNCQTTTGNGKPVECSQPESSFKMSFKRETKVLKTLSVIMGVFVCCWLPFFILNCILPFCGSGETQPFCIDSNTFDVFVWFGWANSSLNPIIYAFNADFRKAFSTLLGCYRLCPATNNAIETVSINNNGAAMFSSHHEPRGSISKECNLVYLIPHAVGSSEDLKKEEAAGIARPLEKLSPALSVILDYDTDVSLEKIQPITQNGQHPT
Parameter Measured: pKi
Scale: negative log10 of molar concentration, which is what pKi denotes.

In: Quick one: pKi for OC(c1ccccc1)C1CCN(CCc2ccccc2)CC1 (stereo unspecified) [MDL-11939] ?
Out: 6.49

---

target: 5-hydroxytryptamine receptor 2A (Rattus norvegicus, UniProt P14842)
Sequence (P14842 whole entry): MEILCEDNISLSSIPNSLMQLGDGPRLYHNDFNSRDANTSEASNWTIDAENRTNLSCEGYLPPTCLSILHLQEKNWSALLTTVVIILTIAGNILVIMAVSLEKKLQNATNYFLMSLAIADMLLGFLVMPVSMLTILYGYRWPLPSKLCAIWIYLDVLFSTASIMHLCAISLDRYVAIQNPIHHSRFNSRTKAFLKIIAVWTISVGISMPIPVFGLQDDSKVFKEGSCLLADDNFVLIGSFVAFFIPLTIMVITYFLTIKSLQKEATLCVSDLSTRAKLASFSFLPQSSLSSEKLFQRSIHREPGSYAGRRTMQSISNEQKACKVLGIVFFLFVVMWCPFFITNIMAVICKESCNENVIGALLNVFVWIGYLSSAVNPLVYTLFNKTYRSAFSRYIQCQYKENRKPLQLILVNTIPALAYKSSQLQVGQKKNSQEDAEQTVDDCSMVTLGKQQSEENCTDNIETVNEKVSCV
Parameter Measured: Ki (nM)
Form entry: value (nM) — number only.

# Molecule, Parameter Measured, Units Text, Reported Value
rows = [
    ("OC(c1ccccc1)C1CCN(CCc2ccccc2)CC1 (configuration not stated)", "Ki", "nM", 2.89),
]

Next up:
In: Quick one: Ki for `CN(C)CCON=C(C=Cc1ccc(O)cc1)c1ccccc1F` ?
Out: 0.951
